assay: Inhibition of Influenza A virus (A/Puerto Rico/8/34(H1N1)) PA endonuclease infected in MDCK cells assessed as reduction in virus titer treated with cells for 1 hr prior to viral infection for 1 hr followed by compound washout and subsequent compound addition measured after 48 hrs by hemagglutination test
Measured log10 IC50, listed per entry.
Lab note - IC50 converted to log10 from values in µM.

// worked examples, log10 IC50 included
1) COc1ccc(N2CCN=C2c2ccc(C3=NCCN3c3ccc(OC)cc3)cc2)cc1
1.20
2) C[C@@H](N)C12CC3CC(CC(C3)C1)C2
1.04
3) Clc1ccc(N2CCN=C2c2ccc(C3=NCCN3c3ccc(Cl)cc3)cc2)cc1
0.70
4) c1ccc(N2CCN=C2c2ccc(C3=NCCN3c3ccccn3)cc2)nc1
1.54
5) COc1ccc(N2CCN=C2c2ccc(C3=NCCN3)cc2)cc1
1.64

Recorded result, `Fc1ccc(N2CCN=C2c2ccc(C3=NCCN3)cc2)cc1` , log10 IC50: 1.81

Input `Fc1ccc(N2CCN=C2c2ccc(C3=NCCN3c3ccc(F)cc3)cc2)cc1` . Output log10 IC50: 1.08

====

Recorded IC50 values for a group of compounds are listed next.
assay: Inhibition of Influenza A virus (A/Puerto Rico/8/34(H1N1)) PA endonuclease infected in MDCK cells assessed as reduction in virus titer treated with cells for 1 hr prior to viral infection for 1 hr followed by compound washout and subsequent compound addition measured after 48 hrs by hemagglutination test
Respond numerically; units are µM and should not be typed.

Some entries whose results are on file:
1) FC(F)(F)c1ccc(N2CCN=C2c2ccc(C3=NCCN3c3ccc(C(F)(F)F)cn3)cc2)nc1
103
2) c1ccc(N2CCN=C2c2ccc(C3=NCCN3c3ccccc3)cc2)cc1
77

Form field IC50, entry `c1ccc(N2CCN=C2c2ccc(C3=NCCN3)cc2)cc1` : 30

The value of IC50 measured for the compound `c1cncc(N2CCN=C2c2ccc(C3=NCCN3c3cccnc3)cc2)c1` turned out to be 68

Data credit: BindingDB's records for doi:10.1016/j.ejmech.2018.10.063
